The reported numbers originate from paper PMC4139342.

Assay: In vivo plasma PK after intravenous dosing
Details: female, CD-1, mouse, plasma, iv, 5 mg/kg, T1/2 (i.v), mice, i.v. dosing at 5 mg/kg
measurement_type: log10 of half-life (log10 of the value in h)
Field: value | Transform: log10 | Quantity: half-life | Unit: h

Example results:
CC[C@@H]1Oc2nc([N+](=O)[O-])cn2C[C@@H]1OCc1ccc(OC(F)(F)F)cc1 [NI-145] : 0.30
O=[N+]([O-])c1cn2c(n1)OC[C@@H](NCc1ccc(OC(F)(F)F)c(Cl)c1)C2 [NI-135] : 0.60
O=[N+]([O-])c1cn2c(n1)OC[C@@H](NCc1ccc(OC(F)(F)F)c(O)c1)C2 [NI-147] : -0.52
CC[C@H]1Oc2nc([N+](=O)[O-])cn2C[C@@H]1NCc1ccc(-c2ccc(OC(F)(F)F)cc2)cc1 [NI-297] : 0.83
CC[C@@H]1Oc2nc([N+](=O)[O-])cn2C[C@@H]1NCc1ccc(OC(F)(F)F)c(F)c1 [NI-176] : 0.00

Q: Identify the reported log10 of half-life for the following entry. CC[C@H]1Oc2nc([N+](=O)[O-])cn2C[C@@H]1NCc1ccc(OC(F)(F)F)cc1 [NI-182]
Ans: 0.45

Q: Identify the reported log10 of half-life for the following entry. O=[N+]([O-])c1cn2c(n1)OC1(CC1)C(OCc1ccc(OC(F)(F)F)cc1)C2 (centres unmarked) [NI-302]
Ans: 0.57

Q: Identify the reported log10 of half-life for the following entry. CC[C@@H]1Oc2nc([N+](=O)[O-])cn2C[C@@H]1NCc1ccc(OC(F)(F)F)cc1 [NI-269]
Ans: 0.32

====

Experiment: in vivo
Conditions: female, CD-1, mouse, iv, 10 mg/kg
Listed next: entries and their corresponding Vd.
Provide the reading as a plain figure in L/kg.

Example results:
O=[N+]([O-])c1cn2c(n1)OC[C@@H](NCc1ccc(OC(F)(F)F)cc1)C2 : 2.3
O=[N+]([O-])c1cn2c(n1)OC[C@@H](NCCc1ccc(OC(F)(F)F)cc1)C2 : 2

Q: Identify the reported Vd for the following entry. "O=C(CO[C@@H]1COc2nc([N+](=O)[O-])cn2C1)N1CCN(c2ccc(C(F)(F)F)cn2)CC1"
Ans: 0.7

Q: Identify the reported Vd for the following entry. "O=C(CO[C@@H]1COc2nc([N+](=O)[O-])cn2C1)N1CCN(c2ccc(OC(F)(F)F)cc2)CC1"
Ans: 1.8

====

Listed next: entries and their corresponding bioavailability.
Experiment: in vivo
Conditions: female, CD-1, mouse, po, 25 mg/kg
Provide the reading as a plain figure in %.

Example results:
CC[C@H]1Oc2nc([N+](=O)[O-])cn2C[C@@H]1NCc1ccc(OC(F)(F)F)cc1 : 82
CC[C@@H]1Oc2nc([N+](=O)[O-])cn2C[C@@H]1NCc1ccc(OC(F)(F)F)c(F)c1 : 86
CC[C@H]1Oc2nc([N+](=O)[O-])cn2C[C@@H]1NCc1ccc(-c2ccc(OC(F)(F)F)cc2)cc1 : 100
O=[N+]([O-])c1cn2c(n1)OC1(CC1)C(OCc1ccc(OC(F)(F)F)cc1)C2 (stereo not drawn) : 100
O=[N+]([O-])c1cn2c(n1)OC[C@@H](NCc1ccc(OC(F)(F)F)c(Cl)c1)C2 : 51

Q: Identify the reported bioavailability for the following entry. "CC[C@@H]1Oc2nc([N+](=O)[O-])cn2C[C@@H]1NCc1ccc(OC(F)(F)F)cc1"
Ans: 88

Q: Identify the reported bioavailability for the following entry. "O=[N+]([O-])c1cn2c(n1)OC[C@@H](NCc1ccc(OC(F)(F)F)c(F)c1)C2"
Ans: 64

Q: Identify the reported bioavailability for the following entry. "O=[N+]([O-])c1cn2c(n1)OC[C@@H](NCc1ccc(OC(F)(F)F)c(O)c1)C2"
Ans: 0.3

Q: Identify the reported bioavailability for the following entry. "CC[C@@H]1Oc2nc([N+](=O)[O-])cn2C[C@@H]1OCc1ccc(OC(F)(F)F)cc1"
Ans: 68
